Catalogue of melting point values
measuredParameter: melting point

compound: O=C(C(c1ccccc1)n1cnc2[nH]ncc2c1=S)N1CCN(c2ccccn2)CC1 (centres unmarked)
result: 242 to 246 °C

compound: CC1(O)CCN(C(=O)C(c2ccccc2)n2cnc3[nH]ncc3c2=S)CC1 (centres unmarked)
result: 140 to 144 °C

compound: C=CCOc1cccc(C(C(=O)N2CCC(O)(c3ccccc3)CC2)n2cnc3[nH]ncc3c2=S)c1 (centres unmarked)
result: 116 to 120 °C

compound: O=C(C(c1ccccc1)n1cnc2[nH]ncc2c1=S)N1CCCCCCC1 (centres unmarked)
result: 92 to 95 °C

compound: O=C(OC1CCCCC1)C(c1ccccc1)n1cnc2[nH]ncc2c1=O (centres unmarked)
result: 176 to 180 °C

compound: COc1ccc(N2CCN(C(=O)C(c3ccccc3)n3cnc4[nH]ncc4c3=S)CC2)cc1 (centres unmarked)
result: 114 to 118 °C

compound: CC(c1ccccc1)n1cnc2[nH]ncc2c1=O (centres unmarked)
result: 210 to 214 °C

compound: O=C(C(c1ccccc1)n1cnc2[nH]ncc2c1=S)N1CCC(O)(c2ccc(Br)cc2)CC1 (centres unmarked)
result: 155 to 160 °C

* * *

molecular target: ERAB (L-3-hydroxyacyl-CoA dehydrogenase) (Homo sapiens); test: ERAB enzyme assay (loss of NADH absorbance at 340 nm, acetoacetyl-CoA as substrate); format: biochemical; details: 2.5 nM enzyme preincubated with inhibitor 400 seconds at 30° C., pH 7.5, 36 uM NADH, 2% DMSO; started with acetoacetyl-CoA (38 uM)
Sequence (Q99714 whole entry): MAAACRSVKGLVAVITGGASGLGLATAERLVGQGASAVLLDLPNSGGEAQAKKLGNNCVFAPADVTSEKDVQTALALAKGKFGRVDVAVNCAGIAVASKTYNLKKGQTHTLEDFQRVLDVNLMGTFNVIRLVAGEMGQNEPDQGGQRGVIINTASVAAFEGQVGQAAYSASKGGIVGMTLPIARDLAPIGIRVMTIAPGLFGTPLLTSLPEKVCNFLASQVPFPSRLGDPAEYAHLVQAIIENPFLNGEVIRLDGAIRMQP
pIC50: −log10 of the molar value.
Catalogue of pIC50 values
measuredParameter: pIC50

molecule: O=C(C(c1ccccc1)n1cnc2[nH]ncc2c1=S)N1CCC(O)(c2ccc(Br)cc2)CC1 (stereo not drawn)
measuredParameter: pIC50
measuredNumber: 7.09
//
molecule: O=C(C(c1ccccc1)n1cnc2[nH]ncc2c1=S)N1CCCCCCC1 (stereo not drawn)
measuredParameter: pIC50
measuredNumber: 7.02
//
molecule: CC1(O)CCN(C(=O)C(c2ccccc2)n2cnc3[nH]ncc3c2=S)CC1 (stereo not drawn)
measuredParameter: pIC50
measuredNumber: 6.68
//
molecule: O=C(C(c1ccccc1)n1cnc2[nH]ncc2c1=S)N1CCCCC1 (stereo not drawn)
measuredParameter: pIC50
measuredNumber: 6.11
//
molecule: COc1ccc(N2CCN(C(=O)C(c3ccccc3)n3cnc4[nH]ncc4c3=S)CC2)cc1 (stereo not drawn)
measuredParameter: pIC50
measuredNumber: 6.52
//
molecule: O=C(C(c1ccccc1)n1cnc2[nH]ncc2c1=S)N1CCC(c2ccccc2)CC1 (stereo not drawn)
measuredParameter: pIC50
measuredNumber: 6.67
//
molecule: CC(=O)C1(c2ccccc2)CCN(C(=O)C(c2ccccc2)n2cnc3[nH]ncc3c2=S)CC1 (stereo not drawn)
measuredParameter: pIC50
measuredNumber: 6.12
//
molecule: CON(C)C(=O)C(c1ccccc1)n1cnc2[nH]ncc2c1=S (stereo not drawn)
measuredParameter: pIC50
measuredNumber: 5.82
//
molecule: CC(c1ccccc1)n1cnc2[nH]ncc2c1=O (stereo not drawn)
measuredParameter: pIC50
measuredNumber: 3.31

* * *

measuredParameter: melting point

compound: O=C(OC1CCCCC1)C(c1ccccc1)n1cnc2[nH]ncc2c1=S (stereo not shown) [XIIa]
result: 170 to 173 °C
--
compound: O=C(C(c1ccccc1)n1cnc2[nH]ncc2c1=S)N1CCC(O)(c2ccccc2)CC1 (stereo not shown) [XVIf]
result: 142 to 146 °C
--
compound: O=C(O)C(c1ccccc1)n1cnc2[nH]ncc2c1=S (stereo not shown) [XIVa]
result: 95 to 98 °C
--
compound: C=CCOc1cccc(C(C(=O)N2CCCCCC2)n2cnc3[nH]ncc3c2=S)c1 (stereo not shown) [XVIt]
result: 75 to 80 °C
--
compound: O=C(C(c1ccccc1)n1cnc2[nH]ncc2c1=S)N1CCN(c2ccccc2)CC1 (stereo not shown) [XVIj]
result: 241 to 245 °C
--
compound: CCCCC1(O)CCN(C(=O)C(c2ccccc2)n2cnc3[nH]ncc3c2=S)CC1 (stereo not shown) [XVIn]
result: 98 to 102 °C
--
compound: CCN(CC)C(=O)C(c1ccccc1)n1cnc2[nH]ncc2c1=S (stereo not shown) [XVIr]
result: 143 to 146 °C
--
compound: CC(c1ccccc1)n1cnc2[nH]ncc2c1=S (stereo not shown) [LVIIIa]
result: 170 to 174 °C
--
compound: O=C(C(c1ccccc1)n1cnc2[nH]ncc2c1=S)N1CCC(O)(c2ccccn2)CC1 (stereo not shown) [XVIm]
result: 138 to 142 °C
--
compound: CON(C)C(=O)C(c1ccccc1)n1cnc2[nH]ncc2c1=S (stereo not shown) [XVIb]
result: 82 to 86 °C
